target: ADRB1 (Homo sapiens, UniProt P08588); test: Mini-profiling panel, GPCR; settings: GPCR Targets; read-out: ADRB1 Antagonism IC50
REPORTED_PROPERTY: IC50

Sure, the documented IC50 for Cn1cnc2c(=O)n(-c3cccnc3C3CC3)c3cc(Cl)ccc3c21 is > 10 µM

* * *

target: KvLQT1/mink (Homo sapiens); experiment: Mini-profiling panel, ion channel
Sequence (P51787 whole entry): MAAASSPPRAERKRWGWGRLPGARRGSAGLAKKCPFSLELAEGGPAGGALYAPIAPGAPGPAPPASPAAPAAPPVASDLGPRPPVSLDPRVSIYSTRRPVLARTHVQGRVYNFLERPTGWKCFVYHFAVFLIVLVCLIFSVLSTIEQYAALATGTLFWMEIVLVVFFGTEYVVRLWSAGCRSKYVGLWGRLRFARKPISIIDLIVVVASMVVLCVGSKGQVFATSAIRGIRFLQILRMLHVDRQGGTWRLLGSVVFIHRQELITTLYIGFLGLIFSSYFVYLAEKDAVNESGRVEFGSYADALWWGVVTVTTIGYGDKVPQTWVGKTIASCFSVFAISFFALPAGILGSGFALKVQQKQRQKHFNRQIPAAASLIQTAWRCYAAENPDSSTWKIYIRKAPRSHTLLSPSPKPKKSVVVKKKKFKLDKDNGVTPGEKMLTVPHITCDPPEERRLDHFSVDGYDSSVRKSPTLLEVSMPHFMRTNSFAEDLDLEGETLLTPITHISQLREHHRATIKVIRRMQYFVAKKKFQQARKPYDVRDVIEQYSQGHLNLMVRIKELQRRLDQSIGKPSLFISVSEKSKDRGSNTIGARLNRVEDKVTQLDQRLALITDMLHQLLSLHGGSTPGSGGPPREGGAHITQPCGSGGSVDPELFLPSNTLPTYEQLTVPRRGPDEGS
REPORTED_PROPERTY: EC50

Sure, the documented EC50 for Cn1cnc2c(=O)n(-c3cccnc3C3CC3)c3cc(Cl)ccc3c21 is > 10 µM

* * *

target: HTR2B (Homo sapiens, UniProt P41595); experiment: Mini-profiling panel, GPCR; assay type: cell-based
Sequence (P41595 whole entry, species assumed): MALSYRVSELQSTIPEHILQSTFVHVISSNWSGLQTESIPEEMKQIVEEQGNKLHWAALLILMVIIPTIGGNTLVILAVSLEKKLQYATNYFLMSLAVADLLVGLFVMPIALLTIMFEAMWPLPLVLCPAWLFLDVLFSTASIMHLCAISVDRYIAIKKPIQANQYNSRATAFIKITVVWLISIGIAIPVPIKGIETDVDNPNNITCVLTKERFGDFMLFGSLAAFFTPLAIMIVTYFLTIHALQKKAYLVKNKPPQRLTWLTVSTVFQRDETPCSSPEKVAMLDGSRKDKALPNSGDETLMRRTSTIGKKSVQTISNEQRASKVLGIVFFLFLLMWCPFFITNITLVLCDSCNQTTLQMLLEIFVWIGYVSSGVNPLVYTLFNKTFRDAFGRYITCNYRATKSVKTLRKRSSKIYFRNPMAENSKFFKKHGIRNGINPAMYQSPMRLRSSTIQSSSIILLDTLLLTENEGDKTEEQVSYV
REPORTED_PROPERTY: IC50

Item Cn1cnc2c(=O)n(-c3cccnc3C3CC3)c3cc(Cl)ccc3c21 [SCR‐7952] was tested on HTR2B (Homo sapiens, UniProt P41595); the reported IC50 is > 10 µM

* * *

molecular target: CHRM3 (Homo sapiens, UniProt P20309); test: Mini-profiling panel, GPCR
REPORTED_PROPERTY: EC50

Sure, the documented EC50 for Cn1cnc2c(=O)n(-c3cccnc3C3CC3)c3cc(Cl)ccc3c21 is > 10 µM

* * *

target: ROCK1 (Homo sapiens)
Sequence (Q13464 whole entry, species assumed): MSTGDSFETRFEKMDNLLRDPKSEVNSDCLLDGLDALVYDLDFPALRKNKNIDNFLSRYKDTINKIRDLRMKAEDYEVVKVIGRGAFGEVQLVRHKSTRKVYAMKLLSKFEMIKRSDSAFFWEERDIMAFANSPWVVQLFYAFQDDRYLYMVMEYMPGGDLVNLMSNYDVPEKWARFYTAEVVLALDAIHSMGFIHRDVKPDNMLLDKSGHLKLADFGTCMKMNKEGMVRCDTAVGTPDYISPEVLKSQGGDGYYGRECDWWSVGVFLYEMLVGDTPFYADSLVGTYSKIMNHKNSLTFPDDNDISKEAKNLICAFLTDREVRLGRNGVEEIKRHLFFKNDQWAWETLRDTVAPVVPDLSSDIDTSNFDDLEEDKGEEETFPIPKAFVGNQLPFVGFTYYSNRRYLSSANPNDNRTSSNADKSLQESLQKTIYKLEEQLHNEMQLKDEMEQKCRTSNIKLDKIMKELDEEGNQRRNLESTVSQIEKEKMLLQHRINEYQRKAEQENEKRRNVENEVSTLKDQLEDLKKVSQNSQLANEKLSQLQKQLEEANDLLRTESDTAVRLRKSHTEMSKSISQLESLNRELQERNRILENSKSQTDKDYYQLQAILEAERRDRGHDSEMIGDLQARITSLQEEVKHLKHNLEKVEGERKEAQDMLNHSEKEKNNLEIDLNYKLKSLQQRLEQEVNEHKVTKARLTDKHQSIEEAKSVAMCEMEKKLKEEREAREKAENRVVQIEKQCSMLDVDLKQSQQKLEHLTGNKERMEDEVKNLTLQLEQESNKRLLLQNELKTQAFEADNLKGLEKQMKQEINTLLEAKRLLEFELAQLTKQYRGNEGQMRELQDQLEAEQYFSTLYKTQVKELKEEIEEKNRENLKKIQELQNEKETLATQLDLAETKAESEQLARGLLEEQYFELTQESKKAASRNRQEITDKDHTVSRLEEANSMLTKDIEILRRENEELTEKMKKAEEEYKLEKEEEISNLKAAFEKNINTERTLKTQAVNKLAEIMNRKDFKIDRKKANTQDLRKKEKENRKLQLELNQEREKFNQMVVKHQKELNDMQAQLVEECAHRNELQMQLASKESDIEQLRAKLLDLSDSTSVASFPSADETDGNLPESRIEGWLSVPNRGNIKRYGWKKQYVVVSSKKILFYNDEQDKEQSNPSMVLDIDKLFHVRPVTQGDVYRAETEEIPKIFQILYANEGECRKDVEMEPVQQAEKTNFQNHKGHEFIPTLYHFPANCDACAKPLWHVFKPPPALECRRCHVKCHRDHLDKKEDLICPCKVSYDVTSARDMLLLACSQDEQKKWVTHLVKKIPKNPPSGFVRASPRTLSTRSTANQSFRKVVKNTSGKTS
REPORTED_PROPERTY: IC50

Sure, the documented IC50 for Cn1cnc2c(=O)n(-c3cccnc3C3CC3)c3cc(Cl)ccc3c21 is > 10 µM

* * *

target: HRH2 (Homo sapiens, UniProt P25021); assay: Mini-profiling panel, GPCR; settings: GPCR Targets; read-out: HRH2 Agonism EC50
Sequence (P25021 whole entry, species assumed): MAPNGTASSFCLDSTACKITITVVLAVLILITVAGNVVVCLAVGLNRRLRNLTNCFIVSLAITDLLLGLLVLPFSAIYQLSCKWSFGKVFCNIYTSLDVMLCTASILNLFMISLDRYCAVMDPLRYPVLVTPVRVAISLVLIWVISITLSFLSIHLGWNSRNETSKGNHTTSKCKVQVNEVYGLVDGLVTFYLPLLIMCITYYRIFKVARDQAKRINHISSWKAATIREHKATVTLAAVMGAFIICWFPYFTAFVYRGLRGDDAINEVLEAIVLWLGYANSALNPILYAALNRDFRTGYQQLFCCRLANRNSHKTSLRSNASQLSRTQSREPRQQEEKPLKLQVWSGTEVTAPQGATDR
REPORTED_PROPERTY: EC50

Sure, the documented EC50 for Cn1cnc2c(=O)n(-c3cccnc3C3CC3)c3cc(Cl)ccc3c21 is > 10 µM

* * *

Target: EDNRA (Homo sapiens)
Sequence (P25101 21-427): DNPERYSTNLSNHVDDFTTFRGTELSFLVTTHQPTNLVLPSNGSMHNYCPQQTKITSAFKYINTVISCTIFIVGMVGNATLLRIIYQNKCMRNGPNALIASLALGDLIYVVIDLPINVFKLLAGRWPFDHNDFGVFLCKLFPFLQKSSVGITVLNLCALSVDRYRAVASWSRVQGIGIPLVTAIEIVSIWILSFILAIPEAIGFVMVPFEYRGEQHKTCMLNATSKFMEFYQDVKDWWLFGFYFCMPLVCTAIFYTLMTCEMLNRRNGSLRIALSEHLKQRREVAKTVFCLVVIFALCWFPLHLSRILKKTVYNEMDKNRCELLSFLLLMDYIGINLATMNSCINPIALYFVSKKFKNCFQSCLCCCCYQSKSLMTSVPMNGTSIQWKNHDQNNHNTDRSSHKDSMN
Assay: Mini-profiling panel, GPCR
Conditions: GPCR Targets; read-out: EDNRA Agonism EC50
REPORTED_PROPERTY: EC50

Sure, the documented EC50 for Cn1cnc2c(=O)n(-c3cccnc3C3CC3)c3cc(Cl)ccc3c21 [SCR‐7952] is > 10 µM

* * *

molecular target: CCKAR (Homo sapiens); assay: Mini-profiling panel, GPCR; conditions: GPCR Targets; read-out: CCKAR Agonism EC50
Sequence (P32238 whole entry, species assumed): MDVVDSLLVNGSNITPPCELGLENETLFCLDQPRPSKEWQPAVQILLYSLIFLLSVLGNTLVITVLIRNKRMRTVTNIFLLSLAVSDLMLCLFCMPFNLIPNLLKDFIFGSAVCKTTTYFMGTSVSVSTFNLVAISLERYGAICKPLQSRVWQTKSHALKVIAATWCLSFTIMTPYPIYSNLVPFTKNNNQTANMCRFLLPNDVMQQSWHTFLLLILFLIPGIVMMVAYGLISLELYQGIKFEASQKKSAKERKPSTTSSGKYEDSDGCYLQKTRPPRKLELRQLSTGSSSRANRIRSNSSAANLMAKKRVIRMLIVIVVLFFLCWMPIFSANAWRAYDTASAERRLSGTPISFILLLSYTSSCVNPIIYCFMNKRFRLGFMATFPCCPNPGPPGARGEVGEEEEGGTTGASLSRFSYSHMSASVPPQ
REPORTED_PROPERTY: EC50

Sure, the documented EC50 for Cn1cnc2c(=O)n(-c3cccnc3C3CC3)c3cc(Cl)ccc3c21 [SCR‐7952] is > 10 µM

* * *

target: VEGFR2 (Homo sapiens)
Sequence (P35968 20-1356, species assumed): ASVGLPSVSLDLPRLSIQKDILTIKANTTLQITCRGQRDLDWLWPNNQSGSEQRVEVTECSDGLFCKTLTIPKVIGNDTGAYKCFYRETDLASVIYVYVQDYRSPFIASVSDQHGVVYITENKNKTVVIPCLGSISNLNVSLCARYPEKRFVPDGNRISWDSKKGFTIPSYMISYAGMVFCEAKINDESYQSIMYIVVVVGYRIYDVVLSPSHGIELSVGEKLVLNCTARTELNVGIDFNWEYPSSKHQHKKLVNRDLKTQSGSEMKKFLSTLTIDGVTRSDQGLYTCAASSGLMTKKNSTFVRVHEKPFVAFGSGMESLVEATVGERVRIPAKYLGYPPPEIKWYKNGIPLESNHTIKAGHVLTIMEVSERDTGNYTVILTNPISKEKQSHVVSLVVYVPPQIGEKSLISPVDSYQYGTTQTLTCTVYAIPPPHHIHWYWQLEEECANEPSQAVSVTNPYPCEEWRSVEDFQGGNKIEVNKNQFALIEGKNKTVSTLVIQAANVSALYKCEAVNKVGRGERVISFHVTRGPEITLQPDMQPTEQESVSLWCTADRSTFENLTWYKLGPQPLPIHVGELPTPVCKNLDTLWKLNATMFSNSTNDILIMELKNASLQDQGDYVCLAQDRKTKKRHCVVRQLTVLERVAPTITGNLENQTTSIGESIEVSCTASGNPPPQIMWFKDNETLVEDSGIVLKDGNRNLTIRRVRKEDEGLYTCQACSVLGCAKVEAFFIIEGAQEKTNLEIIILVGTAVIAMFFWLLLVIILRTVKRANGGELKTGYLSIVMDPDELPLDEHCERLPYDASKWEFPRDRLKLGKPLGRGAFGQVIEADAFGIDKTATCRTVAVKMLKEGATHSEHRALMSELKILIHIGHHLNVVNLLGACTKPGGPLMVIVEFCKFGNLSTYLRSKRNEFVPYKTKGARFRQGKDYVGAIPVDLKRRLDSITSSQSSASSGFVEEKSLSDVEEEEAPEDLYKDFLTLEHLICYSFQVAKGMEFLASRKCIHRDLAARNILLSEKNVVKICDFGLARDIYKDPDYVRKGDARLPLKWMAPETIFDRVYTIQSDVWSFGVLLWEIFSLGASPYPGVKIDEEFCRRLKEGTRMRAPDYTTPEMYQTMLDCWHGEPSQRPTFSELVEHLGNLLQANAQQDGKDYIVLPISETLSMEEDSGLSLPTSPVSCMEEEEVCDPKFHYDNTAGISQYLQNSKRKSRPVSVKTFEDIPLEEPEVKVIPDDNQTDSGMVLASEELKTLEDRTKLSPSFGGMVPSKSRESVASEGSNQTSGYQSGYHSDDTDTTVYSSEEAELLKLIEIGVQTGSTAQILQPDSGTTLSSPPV
pIC50: −log10 of the molar value.
REPORTED_PROPERTY: pIC50

Sure, the documented pIC50 for Cn1cnc2c(=O)n(-c3cccnc3C3CC3)c3cc(Cl)ccc3c21 is < 5.00
